- SYSTEM: human CD3 (human, UniProt P07766 23-207; P04234 22-171; P09693 23-182)
- Sequence (P07766 23-207, chain 1 of 3): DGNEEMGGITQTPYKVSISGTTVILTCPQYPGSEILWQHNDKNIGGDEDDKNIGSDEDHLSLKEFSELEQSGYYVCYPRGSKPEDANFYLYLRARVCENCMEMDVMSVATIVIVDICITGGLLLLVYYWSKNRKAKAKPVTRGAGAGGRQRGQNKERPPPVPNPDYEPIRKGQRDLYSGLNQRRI
- Sequence (P04234 22-171, chain 2 of 3): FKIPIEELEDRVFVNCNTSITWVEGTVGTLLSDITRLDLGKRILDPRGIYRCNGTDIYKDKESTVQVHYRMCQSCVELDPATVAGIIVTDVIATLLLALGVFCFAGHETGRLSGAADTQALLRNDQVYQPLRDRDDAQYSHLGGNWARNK
- Sequence (P09693 23-182, chain 3 of 3): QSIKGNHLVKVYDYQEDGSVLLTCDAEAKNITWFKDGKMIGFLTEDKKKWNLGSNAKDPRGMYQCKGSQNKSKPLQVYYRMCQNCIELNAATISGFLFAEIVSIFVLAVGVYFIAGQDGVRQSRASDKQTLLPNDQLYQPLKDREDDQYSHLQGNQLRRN
- PROTOCOL_TEXT: cell-based or functional assay
METRIC_NAME: Top signal_Fold change (Jurkat-NFAT-luciferase activation, normalized to ch40-C12-C10-E9) (fold)
One number for each entry, in fold.

# count of solved cases: 4
Query: Top signal_Fold change (Jurkat-NFAT-luciferase activation, normalized to ch40-C12-C10-E9); subject: hu40E9-L2H8 (antibody, V domains shown) VH: EVQLVQSGAEVKKPGSSVKVSCKASGYTFSSYVIHWVRQAPGQGLEWMGYINPGNDVIKYNEKFKGRVTLTSDKSTSTAYMELSSLRSEDTAVYYCARESYSSYDGFAYWGQGTLVTVSS VL: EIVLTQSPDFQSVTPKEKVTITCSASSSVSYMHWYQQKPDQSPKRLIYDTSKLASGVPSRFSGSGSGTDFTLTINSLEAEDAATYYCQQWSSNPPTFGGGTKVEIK 0.69

I'd like to know its Top signal_Fold change (Jurkat-NFAT-luciferase activation, normalized to ch40-C12-C10-E9). The binder in question is hu40E9-L5H7 (antibody, V domains shown) VH: EVQLVQSGAEVKKPGSSVKVSCKASGYTFSSYVIHWVRQAPGQGLEWMGYINPGNGVIKYNEKFKGRVTLTSDKSTSTAYMELSSLRSEDTAVYYCARDSYSSYDGFAYWGQGTLVTVSS VL: EIVLTQSPDFQSVTPKEKVTITCSASSSVSYMHWYQQKPDQSPKRLIYDTSKLASGVPSRFSGSGSGTDFTLTINSLEAEDAATYYCQQWRSSPPTFGGGTKVEIK 1.15

# query: Top signal_Fold change (Jurkat-NFAT-luciferase activation, normalized to ch40-C12-C10-E9) of entry ch40-C12-C10-E9 (antibody, V domains shown) VH: EVQLQLSGPELVKPGASVKMSCKASGYTFSSYVIHWVKQKPGQGLEWIGYINPYNDVIKYNEKFKGKATLTSDKSSSTAYMELSSLTSEDSAVYYCARDSYYSYDGFAYWGQGTLVTVSA VL: QIVLTQSPAIMSASPGEKVTMTCSASSSVSYMHWYQQKSGTSPKRWIYDTSKLASGVPARFSGSGSGTSYSLTISSMEAEDAATYYCQQWSSNPPTFGGGTKVEIK 1

Recorded Top signal_Fold change (Jurkat-NFAT-luciferase activation, normalized to ch40-C12-C10-E9) for hu40E9-L2H14 (antibody, V domains shown) VH: EVQLVQSGAEVKKPGSSVKVSCKASGYTFSSYVIHWVRQAPGQGLEWMGYINPYNDVIKYNEKFKGRVTLTSDKSTSTAYMELSSLRSEDTAVYYCARESYYSYDGFAYWGQGTLVTVSS VL: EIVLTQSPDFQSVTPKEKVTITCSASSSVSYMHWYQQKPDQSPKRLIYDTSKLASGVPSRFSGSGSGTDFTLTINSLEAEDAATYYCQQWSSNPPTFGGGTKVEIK , please? 0.96

Now consider a different binder.
Given the binder hu40E9-L5H3 (antibody, V domains shown) VH: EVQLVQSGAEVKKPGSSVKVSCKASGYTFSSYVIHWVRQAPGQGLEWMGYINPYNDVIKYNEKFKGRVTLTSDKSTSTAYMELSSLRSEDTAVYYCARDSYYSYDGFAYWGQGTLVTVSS VL: EIVLTQSPDFQSVTPKEKVTITCSASSSVSYMHWYQQKPDQSPKRLIYDTSKLASGVPSRFSGSGSGTDFTLTINSLEAEDAATYYCQQWRSSPPTFGGGTKVEIK , what is its reported Top signal_Fold change (Jurkat-NFAT-luciferase activation, normalized to ch40-C12-C10-E9)? 1.47
